# assayExplanation: Pharmacokinetic study of DAPB in rats (plasma, UPLC–MS/MS)
# Format: in vivo, Sprague–Dawley (SD) rats
# settings: Sprague-Dawley; rat plasma, intravenous administration at 6 mg/kg, mean ± SD (n = 6)
metric: half-life (min)
State just the number; it will be interpreted in min.

Prompt: Query: half-life; subject: C[C@@H](NC(=O)C(O)Cc1ccc(O)c(O)c1)C(=O)N1CCC[C@H]1C(=O)OC1CC2CCC1(C)C2(C)C (stereo partly shown)
Completion: 11.4

---

# assayExplanation: Pharmacokinetic study of DAPB in rats (plasma, UPLC–MS/MS)
# Type: in vivo, Sprague–Dawley (SD) rats
# settings: Sprague-Dawley; rat plasma, oral administration at 30 mg/kg, mean ± SD (n = 6)
metric: Tmax

Prompt: Consider the compound C[C@@H](NC(=O)C(O)Cc1ccc(O)c(O)c1)C(=O)N1CCC[C@H]1C(=O)OC1CC2CCC1(C)C2(C)C (stereo partly shown) and give its measured Tmax.
Completion: 14.7 min

---

# assayExplanation: Pharmacokinetic study of DAPB in rats (plasma, UPLC–MS/MS)
# Format: in vivo, Sprague–Dawley (SD) rats
# settings: Sprague-Dawley; rat plasma, oral administration at 30 mg/kg, mean ± SD (n = 6)
# Experimental: Sprague–Dawley (SD) rats (180–200 g) were purchased from the Experimental Animal Center of Xi’an Jiaotong University (permit number SCXK 2017–003) and housed under controlled conditions (25 °C, 50 ± 5% humidity, and 12 h dark–light cycles). The animal protocol was approved by the Animal Ethics Committee of Xi’an Medical College. […] For the intravenous administration group, DAPB prepared in saline containing 5% DMSO was injected in the tail vein at a dose of 6 mg/kg. […]
metric: AUC(0-t)

Prompt: Would you kindly share the measured AUC(0-t) for C[C@@H](NC(=O)C(O)Cc1ccc(O)c(O)c1)C(=O)N1CCC[C@H]1C(=O)OC1CC2CCC1(C)C2(C)C (stereo partly shown) ?
Completion: 49.6 ng·h/mL

---

# assayExplanation: Pharmacokinetic study of DAPB in rats (plasma, UPLC–MS/MS)
# Format: in vivo, Sprague–Dawley (SD) rats
# settings: Sprague-Dawley, plasma; rat, oral 30 mg/kg vs intravenous 6 mg/kg
metric: bioavailability (%)
The response must be a number in % with no trailing unit.

Prompt: Field request: bioavailability | item: C[C@@H](NC(=O)C(O)Cc1ccc(O)c(O)c1)C(=O)N1CCC[C@H]1C(=O)OC1CC2CCC1(C)C2(C)C (stereo partly shown) [DAPB]
Completion: 78.2

---

# assayExplanation: Pharmacokinetic study of DAPB in rats (plasma, UPLC–MS/MS)
# Type: in vivo, Sprague–Dawley (SD) rats
# settings: Sprague-Dawley; rat plasma, intravenous administration at 6 mg/kg, mean ± SD (n = 6); read-out: Vss
metric: Vd (L/kg)
Please give a number only; it is taken to be in L/kg.

Prompt: Endpoint output: Vd of C[C@@H](NC(=O)C(O)Cc1ccc(O)c(O)c1)C(=O)N1CCC[C@H]1C(=O)OC1CC2CCC1(C)C2(C)C (stereo partly shown) [DAPB] . Value?
Completion: 910

---

# assayExplanation: Pharmacokinetic study of DAPB in rats (plasma, UPLC–MS/MS)
# Format: in vivo, Sprague–Dawley (SD) rats
# settings: Sprague-Dawley; rat plasma, intravenous administration at 6 mg/kg, mean ± SD (n = 6)
metric: AUC(0-inf) (ng·h/mL)
Entry rule: numbers only, all in ng·h/mL.

Prompt: What does the data say about its AUC(0-inf)? Entry: C[C@@H](NC(=O)C(O)Cc1ccc(O)c(O)c1)C(=O)N1CCC[C@H]1C(=O)OC1CC2CCC1(C)C2(C)C (stereo partly shown) [DAPB]
Completion: 13.8

---

# assayExplanation: Pharmacokinetic study of DAPB in rats (plasma, UPLC–MS/MS)
# Type: in vivo, Sprague–Dawley (SD) rats
# settings: Sprague-Dawley; rat plasma, oral administration at 30 mg/kg, mean ± SD (n = 6)
metric: AUC(0-inf) (ng·h/mL)
Return type: number; implicit unit ng·h/mL.

Prompt: Please give the measured AUC(0-inf) for this molecule: C[C@@H](NC(=O)C(O)Cc1ccc(O)c(O)c1)C(=O)N1CCC[C@H]1C(=O)OC1CC2CCC1(C)C2(C)C (stereo partly shown)
Completion: 53.9

---

# assayExplanation: Pharmacokinetic study of DAPB in rats (plasma, UPLC–MS/MS)
# Format: in vivo, Sprague–Dawley (SD) rats
# settings: Sprague-Dawley; rat plasma, intravenous administration at 6 mg/kg, mean ± SD (n = 6)
# Protocol: Sprague–Dawley (SD) rats (180–200 g) were purchased from the Experimental Animal Center of Xi’an Jiaotong University (permit number SCXK 2017–003) and housed under controlled conditions (25 °C, 50 ± 5% humidity, and 12 h dark–light cycles). The animal protocol was approved by the Animal Ethics Committee of Xi’an Medical College. […] For the intravenous administration group, DAPB prepared in saline containing 5% DMSO was injected in the tail vein at a dose of 6 mg/kg. […]
metric: AUC(0-t) (ng·h/mL)
# value in ng·h/mL; strip the unit string

Prompt: # query: AUC(0-t) of entry C[C@@H](NC(=O)C(O)Cc1ccc(O)c(O)c1)C(=O)N1CCC[C@H]1C(=O)OC1CC2CCC1(C)C2(C)C (stereo partly shown)
Completion: 11.8

---

# assayExplanation: Pharmacokinetic study of DAPB in rats (plasma, UPLC–MS/MS)
# Format: in vivo, Sprague–Dawley (SD) rats
# settings: Sprague-Dawley; rat plasma, oral administration at 30 mg/kg, mean ± SD (n = 6)
metric: half-life (h)
Express your answer in h, writing the number without its unit.

Prompt: For the compound C[C@@H](NC(=O)C(O)Cc1ccc(O)c(O)c1)C(=O)N1CCC[C@H]1C(=O)OC1CC2CCC1(C)C2(C)C (stereo partly shown) , what half-life is on record?
Completion: 1.63

---

# assayExplanation: Pharmacokinetic study of DAPB in rats (plasma, UPLC–MS/MS)
# Assay type: in vivo, Sprague–Dawley (SD) rats
# settings: Sprague-Dawley; rat plasma, oral administration at 30 mg/kg, mean ± SD (n = 6)
metric: Cmax (ng/mL)
Number only, in ng/mL; omit the unit.

Prompt: Please give the measured Cmax for this molecule: C[C@@H](NC(=O)C(O)Cc1ccc(O)c(O)c1)C(=O)N1CCC[C@H]1C(=O)OC1CC2CCC1(C)C2(C)C (stereo partly shown) [DAPB]
Completion: 33.2
